test system: HCT-116; assay: NCI tumour cell line growth inhibition, 48 h
Active and inactive are the calls of the source. Rule as the data show it: active = GI50 up to about 1.1 µM and inactive = higher.
Outcome field: choose from active, inactive

Field: example entries. Status: answers known.
| Chemical smiles | Class |
| --- | --- |
| Cn1nc(-c2ccccc2)c(C(=O)/C=C/c2ccccc2)c(N2CCCC2)c1=O | inactive |
| CCN(CC)CCn1c2ccccc2c(=O)c2c(OC)ccc(OC)c21 | inactive |
| Cc1nc(N)nc(N)c1CCCCc1ccc(N)cc1 | active |
| COC1(OC)CC(CO)(COc2cc(Cl)nc(N)n2)C1 | inactive |
| CCCNC(=S)N/N=C/c1cccc(C)n1 | inactive |

Below: the item to evaluate.
Query: recorded result category for `COc1cc(OC)c2c(C)cc(=O)oc2c1` in this test
inactive
